Sourced from patent US4705805A

Kindly supply the reported inhibition at 100 µg/mL values for the records listed here.
# System: rabbit blood platelets (platelet rich plasma), collagen-induced aggregation
# method_description: inhibition of platelet aggregation in rabbit platelet rich plasma (in vitro), induced by collagen
# Assay type: cell-based
# run_conditions: Oryctolagus cuniculus, Platelet; rabbit PRP; 100 μg/ml; read-out: percentage of inhibition, collagen
Numbers only, in %.

Answered cases to consult:
> print(dat)
                                   compound        reported.endpoint  meas.value
1  CCCCCCCCCCCCCCCC(=O)OCCCNC(=O)c1ccccc1SSc1ccccc1C(=O)NCCCOC(=O)CCCCCCCCCCCCCCC [Compound XXII]  inhibition at 100 µg/mL          18
2  O=C(NCCCCO)c1ccccc1SSc1ccccc1C(=O)NCCCCO [Compound XVII]  inhibition at 100 µg/mL         100
3  O=C(NCc1ccccc1)c1ccccc1SSc1ccccc1C(=O)NCc1ccccc1 [Compound II, 2,2'-dithiobis(N-benzylbenzamide)]  inhibition at 100 µg/mL         1.2
4  O=C(NCCO)c1cc(Cl)ccc1SSc1ccc(Cl)cc1C(=O)NCCO [Compound XXXI]  inhibition at 100 µg/mL         100
5  O=C(NCCCN1CCOCC1)c1ccccc1SSc1ccccc1C(=O)NCCCN1CCOCC1 [Compound XL]  inhibition at 100 µg/mL         100
6  CCCCCCCCCCCC(=O)OCCNC(=O)c1ccccc1SSc1ccccc1C(=O)NCCOC(=O)CCCCCCCCCCC [Compound XIX]  inhibition at 100 µg/mL         100
7  CCCCCCCCCCCC(=O)OC(C)CNC(=O)c1ccccc1SSc1ccccc1C(=O)NCC(C)OC(=O)CCCCCCCCCCC (centres unmarked) [Compound XXIII]  inhibition at 100 µg/mL         100

Let us examine a further case.
Q) Please look up its inhibition at 100 µg/mL: O=C(NCCCO)c1ccccc1SSc1ccccc1C(=O)NCCCO [Compound XVI]
A) 100
